Attribution: patent US10981932B2

- System: SUDHL10
- assay summary: Induction of cytotoxicity (CellTiter-Glo, 5 h), SUDHL10
- details: read-out: Cytotox SUDHL10 [M] (median); SUDHL10 cells, cytotoxicity induction, CellTiter-Glo, 5 h incubation, median
Could you please report measured IC50 for the items listed next?
Give the quantity in M, number only.

Sample Cn1nc(COc2ccc(S(C)(=O)=O)cc2)c2c1COCCCCn1c(C(=O)O)c(CCCOc3cccc4ccccc34)c3cccc-2c31 (single isomer, unassigned) — what was its IC50?
2.95e-05

Sample CCc1c2c(nn1CCN1CCOCC1)COCCCCn1c(C(=O)O)c(CCCOc3cccc4ccccc34)c3cccc-2c31 (single isomer, unassigned; enantiomer 1) [Example 202] — what was its IC50?
2.87e-05

Sample O=C(O)c1c(CCCOc2cccc3ccccc23)c2cccc3c2n1CCCCOCc1nn2c(c1-3)OCCC2 (single isomer, unassigned) [Example 248] — what was its IC50?
1.29e-05

====

- Test system: SUDHL5
- assay summary: Induction of cytotoxicity (CellTiter-Glo, 5 h), SUDHL5
- details: read-out: Cytotox SUDHL5 [M] (median); SUDHL5 cells, cytotoxicity induction, CellTiter-Glo, 5 h incubation, median
property measured: IC50

Sample Cc1c2c(nn1C1CC1)COCCCCn1c(C(=O)O)c(CCCOc3cccc4ccccc34)c3cccc-2c31 (single isomer, unassigned; enantiomer 2) [Example 094] — what was its IC50?
> 3.3e-05 M

Sample Cn1nc2c(c1C(F)(F)F)-c1cccc3c(CCCOc4cccc5ccccc45)c(C(=O)O)n(c13)CCCCOC2 (single isomer, unassigned; enantiomer 2) [Example 195] — what was its IC50?
> 3.3e-05 M

Sample Cn1nc(CN2CCOCC2)c2c1COCC=CCn1c(C(=O)O)c(CCCOc3cccc4ccccc34)c3cccc-2c31 (single isomer, unassigned; enantiomer 2) — what was its IC50?
> 3.3e-05 M

Sample Cn1nc2c(c1CN1CCOCC1)-c1cccc3c(CCCOc4cccc5ccccc45)c(C(=O)O)n(c13)CCCCOC2 (single isomer, unassigned; enantiomer 2) [Example 080] — what was its IC50?
> 3.3e-05 M

Sample CN1CCCn2c(C(=O)O)c(CCCOc3cccc4ccccc34)c3cccc(c32)-c2c(COc3ccc(N4CCN(S(=O)(=O)N(C)C)CC4)cc3)nn(C)c2C1 (single isomer, unassigned; enantiomer 2) [Example 1-16] — what was its IC50?
> 3.3e-05 M

Sample CCn1nc(C2CC2)c2c1COCCCCn1c(C(=O)O)c(CCCOc3cccc4ccccc34)c3cccc-2c31 (single isomer, unassigned; enantiomer 2) [Example 090] — what was its IC50?
> 3.3e-05 M

Sample Cc1ccc2c(CCCOc3cccc4ccccc34)c(C(=O)O)n3c2c1-c1c(nn(C)c1C)COCCCC3 (single isomer, unassigned; enantiomer 2) — what was its IC50?
> 3.3e-05 M

Sample Cc1c2c(nn1C)COCCCCn1c(C(=O)O)c(CCCOc3cccc4ccccc34)c3cccc-2c31 (single isomer, unassigned; enantiomer 2) [Example 1-38] — what was its IC50?
> 3.3e-05 M

Sample CCc1nn(C)c2c1-c1c(C)ccc3c(C(C)CCOc4cccc5ccccc45)c(C(=O)O)n(c13)CCCCOC2 (single isomer, unassigned) [Example 275] — what was its IC50?
> 3.3e-05 M

Sample Cn1nc(C(F)(F)F)c2c1COCCCCn1c(C(=O)O)c(CCCOc3cccc4ccccc34)c3cccc-2c31 (single isomer, unassigned) [Example 218] — what was its IC50?
2.76e-05 M

Sample Cc1nn(CC(F)(F)F)c2c1-c1cccc3c(CCCOc4cccc5c4CCCC5)c(C(=O)O)n(c13)CCCCOC2 (single isomer, unassigned; enantiomer 2) [Example 163] — what was its IC50?
2.93e-05 M

Sample COCCn1nc(C2CC2)c2c1COCCCCn1c(C(=O)O)c(CCCOc3cccc4ccccc34)c3cccc-2c31 (single isomer, unassigned; enantiomer 1) [Example 103] — what was its IC50?
3.55e-06 M

Sample CN1CCCn2c(C(=O)O)c(CCCOc3cccc4ccccc34)c3cccc(c32)-c2c(CNCC(F)(F)F)nn(C)c2C1 (single isomer, unassigned; enantiomer 2) — what was its IC50?
1.46e-05 M

Sample Cc1nn(CCN2CCOCC2)c2c1-c1cccc3c(CCCOc4cccc5ccccc45)c(C(=O)O)n(c13)CCCCOC2 (single isomer, unassigned; enantiomer 2) [Example 097] — what was its IC50?
3.05e-05 M

Sample COCc1nn(C)c2c1-c1cccc3c(CCCOc4cccc5ccccc45)c(C(=O)O)n(c13)CCCCOC2 (single isomer, unassigned; enantiomer 2) — what was its IC50?
2.05e-05 M
